Experiment: qHTS of pediatric cancer cell lines to identify multiple opportunities for drug repurposing: Primary screen for NB1643 cells (AID 1347099); note: nearly all actives have a fitted effect of over 50% in size; note: potency is the fitted concentration of half-maximal effect
Details: NB1643 neuroblastoma viability, CellTiter-Glo luminescence, 48 h; series mostly up to 46 µM
Results filed as inconclusive are left out. Active and inactive are the calls of the source. Calls come from the whole dose curve; as a rule, active = well fitted cell-killing curve with a large enough effect; inconclusive = small, poorly fitted or top-dose-only effect; inactive = no such curve, though single readings can be large or run the other way.
Property Measured: Potency

Consider the following illustrative entries.
| Compound | Potency |
| --- | --- |
| CC[C@H](C)n1cc(C)c2c(C(=O)NCc3c(C)cc(C)[nH]c3=O)cc(-c3ccc(N4CCNCC4)nc3)cc21 | 1.66 µM (active) |
| Cc1cc2nc3c(=O)[nH]c(=O)nc-3n(CC(O)C(O)C(O)CO)c2cc1C (configuration not stated) | 23.5 µM (active) |
| CNc1nc(Nc2ccc(C(=O)N3CCOCC3)cc2OC)ncc1Cl | 4.69 µM (active) |
| CCNC(=O)Nc1ccc(Oc2ncnc(N)c2C=NOC)cc1Cl | inactive |
| CC(C)(C)c1[nH]cnc1C=c1[nH]c(=O)c(=Cc2ccccc2)[nH]c1=O | 48.1 µM (active) |

We now examine a further compound.
# Potency (compound: CCCCC(F)(F)[C@@]1(O)CC[C@H]2[C@H](CC(=O)[C@@H]2CCCCCCC(=O)O)O1 ) is inactive

====

Test: qHTS of pediatric cancer cell lines to identify multiple opportunities for drug repurposing: Primary screen for NB-EBc1 cells (AID 1347095);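 note: plate controls were DMSO neutral control for no effect and bortezomib for full effect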
Settings: NB-EBc1 neuroblastoma viability, CellTiter-Glo luminescence, 48 h; series mostly up to 46 µM
Results filed as inconclusive are left out. The source made the active and inactive calls. Calls come from the whole dose curve; as a rule, active = well fitted cell-killing curve with a large enough effect; inconclusive = small, poorly fitted or top-dose-only effect; inactive = no such curve, though single readings can be large or run the other way.
Form entry, call: pick from TRUE for active, FALSE for inactive

| Compound | Assigned Label |
| --- | --- |
| Cc1ccc(NC(=O)c2ccc(CN3CCN(C)CC3)cc2)cc1Nc1nc(-c2cccnc2)cs1 | FALSE |

Shifting focus to the compound that follows.
Test call, this compound: O=C(CO)N1CCC(c2[nH]nc(-c3ccc(Cl)cc3)c2-c2ccncn2)CC1 FALSE

====

Experiment: Quantitative High-Throughput drug screen in 47 multiple myeloma cell lines against the NCATS MIPE library collection: XG6_PLB cell viability assay (AID 1919865); note: nearly all actives have a fitted effect of over 40% in size
Conditions: XG6 myeloma viability, CellTiter-Glo ATP luminescence, 48 h; series mostly up to 45.8 µM
Records with an inconclusive call do not appear. Activity calls are given as the source filed them. Calls follow the shape of the dose curve; as a rule, active = well fitted cell-killing curve with a large enough effect; inconclusive = small, poorly fitted or top-dose-only effect, or effect the other way; inactive = no such curve, though single readings can be large or run the other way.
// allowed return values: 1 for active, 0 for inactive

Below are worked cases with known answers.
| Smiles Str | Assigned Label |
| --- | --- |
| N[C@@H](CC(=O)N1CCn2c(nnc2C(F)(F)F)C1)Cc1cc(F)c(F)cc1F | 0 |
| CN1CC(=O)NC1=NC(=O)Nc1cccc(Cl)c1 | 1 |
| COc1c(C)cnc(Cn2cnc3c(Cl)nc(N)nc32)c1C | 1 |
| Cc1[nH]c(C=C2C(=O)Nc3ccc(S(=O)(=O)N(C)c4cccc(Cl)c4)cc32)c(C)c1C(=O)N1CCN(C)CC1 | 1 |

Note: attention shifts to another entry.
Please indicate how the test categorized Nc1nc(Cl)nc2c1ncn2[C@@H]1O[C@H](CO)[C@@H](O)[C@H]1F . 1

====

Test: qHTS of pediatric cancer cell lines to identify multiple opportunities for drug repurposing: Confirmatory screen for Rh30 cells (AID 1347126); note: nearly all actives have a fitted effect of over 55% in size
Settings: Rh30 rhabdomyosarcoma cell viability; series mostly up to 45.9 µM
Inconclusive results are not listed. Activity calls are given as the source filed them. The call rests on the fitted dose curve; in most records, active means well fitted cell-killing curve with a large enough effect; inconclusive means small, poorly fitted or top-dose-only effect, or effect the other way; inactive means no such curve, though single readings can be large or run the other way.
Output constraint: value belongs to yes (1) for active, no (0) for inactive

Illustrative cases are given below, each with its answer.
| Compound | Assigned Label |
| --- | --- |
| COc1cc([C@@H]2c3cc4c(cc3[C@@H](O[C@@H]3O[C@@H]5CO[C@@H](C)O[C@@H]5[C@H](O)[C@@H]3O)[C@H]3COC(=O)[C@H]23)OCO4)cc(OC)c1O | yes (1) |
| C[C@@]1(c2cc(-c3cncnc3)c(F)cc2F)CCSC(N)=N1 | no (0) |
| COc1ccc2c(c1)c(C1=C(c3c[nH]c4ccccc34)C(=O)NC1=O)cn2CCCN(C)C | yes (1) |
| CSc1cccc(Nc2ncc3cc(-c4c(Cl)cccc4Cl)c(=O)n(C)c3n2)c1 | yes (1) |
| O=C1Nc2ccc(I)cc2C1=Cc1cc(Br)c(O)c(Br)c1 | yes (1) |
| C[C@@H]1C[C@H]2[C@@H]3CCC4=CC(=O)C=C[C@]4(C)[C@@]3(F)[C@@H](O)C[C@]2(C)[C@@]1(O)C(=O)CO | no (0) |
| Nc1ncnc2c1ncn2[C@@H]1O[C@H](CO)[C@@H](O)[C@@H]1O | yes (1) |
| CCC(=O)N1CCN(c2ccc(-n3c(=O)ccc4cnc5ccc(-c6cnc7ccccc7c6)cc5c43)cc2C(F)(F)F)CC1 | no (0) |

Identify the outcome logged in this assay for the compound shown: C[C@@H]1O[C@@H](O[C@H]2CC[C@@]3(C)[C@H](CC[C@@H]4[C@H]3C[C@@H](O)[C@]3(C)[C@@H](C5=CC(=O)OC5)CC[C@]43O)C2)C[C@H](O)[C@@H]1O[C@H]1C[C@H](O)[C@H](O[C@H]2C[C@H](O)[C@@H](O)[C@@H](C)O2)[C@H](C)O1 (stereo in doubt) yes (1)

Per the assay record, what outcome was assigned to Cc1cc(CS(=O)(=O)c2ccccc2)cc(OCc2ccc(CN3CCC[C@H]3CO)cc2)c1 ? no (0)

Could you please tell me the result logged for CC(C)(C)c1[nH]cnc1C=c1[nH]c(=O)c(=Cc2ccccc2)[nH]c1=O in this assay? yes (1)

Hello, I am checking results. What call was entered for C=CC(=O)Nc1cccc(Sc2nc(Nc3ccc(N4CCN(C)CC4)cc3)ncc2Cl)c1 ? yes (1)

For CC1(C)OC2CC3C4CC(F)C5=CC(=O)C=CC5(C)C4C(O)CC3(C)[C@]2(C(=O)CO)O1 (some centres undefined) , which call appears in the assay record? no (0)

Can you look up the reported call for COc1ccc(-c2ccc3ncc4c(c3c2)n(-c2ccc(N3CCNCC3)c(C(F)(F)F)c2)c(=O)n4C)cn1 for me? yes (1)

====

Assay: qHTS profiling of the MIPE4 collection as inhibitors of Plasmodium falciparum (HB3) proliferation (AID 743347);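 note: plate controls were DMSO vehicle wells for no effect and artemisinin wells for full effect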
Settings: P. falciparum HB3 in erythrocytes, SYBR Green DNA, 72 h; at 28.5 µM (top of the series) unless noted
Property: growth, % of control; scope: individual compounds
Note: unit % is implicit; provide only the numeric part.

| Compound | growth, % of control (%) |
| --- | --- |
| Nc1[nH]nc2nnc(-c3c(-c4ccccc4)nn4ccccc34)cc12 | 26 |
| c1ccc(CNc2nc(N3CCOc4ccccc43)nc3c2CCCC3)cc1 | 8.4 |
| CC1CCN(c2cc(N3CCN(C)CC3)ccc2NC(=O)c2cc(C#N)c[nH]2)CC1 | 50.4 |
| CC(C)CNc1ccnc(NCc2csc(-c3ccccc3)n2)n1 | 10.6 |

Now consider the entry below.
Per the records, this compound ( N#CC(c1ccnc(NCCc2cccnc2)n1)c1nc2ccccc2s1 (centres undefined) ) has growth, % of control equal to 7.28

====

Assay: qHTS of pediatric cancer cell lines to identify multiple opportunities for drug repurposing: Primary screen for SK-N-MC cells (AID 1347093)
Details: SK-N-MC viability, CellTiter-Glo luminescence, 48 h; series mostly up to 46 µM
Results filed as inconclusive are left out. The source made the active and inactive calls. Calls follow the shape of the dose curve; as a rule, active = well fitted cell-killing curve with a large enough effect; inconclusive = small, poorly fitted or top-dose-only effect; inactive = no such curve, though single readings can be large or run the other way.
Respond using exactly one of the listed classes: 1 = active, -1 = inactive

| Molecule | Assigned Label |
| --- | --- |
| CNC(=O)c1ccc2c(C(=Nc3cccc(CN(C)C)c3)c3ccccc3)c(O)[nH]c2c1 | 1 |
| CC[C@]1(O)C[C@H]2CN(CCC3=c4ccccc4=N[C]3[C@@](C(=O)OC)(c3cc4c(cc3OC)N(C)[C@H]3[C@@](O)(C(N)=O)[C@H](O)[C@]5(CC)C=CCN6CC[C@]43[C@@H]65)C2)C1 | 1 |

Recorded call for Cc1cc(-c2ncc(CC(=O)Nc3ccc(-c4cnccn4)cn3)cc2C)ccn1 ? 1

Recorded call for CCN(CCO)CCCOc1ccc2c(Nc3cc(CC(=O)Nc4cccc(F)c4)[nH]n3)ncnc2c1 ? 1

Kindly provide the recorded test outcome for the following molecule: CC(C)c1c(C(=O)Nc2ccccc2)c(-c2ccccc2)c(-c2ccc(F)cc2)n1CC[C@H](O)C[C@@H](O)CC(=O)O 1

Returns: the outcome recorded for CCC(=C(CC)c1ccc(O)cc1)c1ccc(O)cc1 in this assay. 1

Any idea what this test logged for C[C@@H](O)[C@H]1C(=O)N2C(C(=O)OCOC(=O)C(C)(C)C)=C(SC3CN(C4=NCCS4)C3)[C@H](C)[C@H]12 ? -1

Which outcome did this test record for the molecule O=C(CC12CC3CC(CC(C3)C1)C2)Nc1cccc2nc(NCCNCCO)ccc12 ? 1

Check the results log: what was the call for CN(C)CCOc1cc(-c2cn[nH]c2)ccc1NC(=O)C1COc2ccccc2O1 (stereo not given) ? 1

Which result was noted for this molecule in the test: CC(=O)O[C@]1(C(C)=O)CC[C@H]2[C@@H]3C=C(Cl)C4=CC(=O)[C@@H]5C[C@H]5[C@]4(C)[C@@H]3CC[C@@]21C 1

Each molecule tested received a call. Report the one for N#CC(c1ccnc(NCCc2cccnc2)n1)c1nc2ccccc2s1 (stereo not given) . 1

Could you kindly confirm the outcome this assay logged for CCNC(=O)[C@H]1O[C@@H](n2cnc3c(N)nc(NCCc4ccc(CCC(=O)O)cc4)nc32)[C@H](O)[C@H]1O ? -1
